- System: A549
- PROCEDURE TEXT: Cytotoxicity in human A549 cells assessed as inhibition of cell growth incubated for 72 hrs by MTT assay
- Assay type: functional, cell-based
- CONDITION DESCRIPTION: A549, 72 h
REPORTED ENDPOINT: log10 IC50 (log10 of the value in µM)

INSERT INTO results (molecule, result_number) VALUES
  ('CCN1C(=O)N(CC)C2C1NC(=S)N2/N=C/C=C/c1ccccc1OC (stereo not drawn)', -0.21),
  ('CN1C(=O)N(C)C2C1NC(=S)N2/N=C/C=C/c1ccccc1[N+](=O)[O-] (stereo not drawn)', 0.43),
  ('COc1cccc2c1C(=O)c1c(O)c3c(c(O)c1C2=O)C[C@@](O)(C(C)=O)C[C@@H]3O[C@H]1C[C@H](N)[C@H](O)[C@H](C)O1', -0.29),
  ('CCN1C(=O)N(CC)C2C1N=C(SC)N2/N=C/C=C/c1ccccc1OC (stereo not drawn)', 0.68),
  ('CN1C(=O)N(C)C2C1NC(=S)N2/N=C/C=C/c1ccccc1 (stereo not drawn)', 1.66),
  ('CCN1C(=O)N(CC)C2C1NC(=S)N2/N=C/C=C/c1ccc(OC)cc1 (stereo not drawn)', 1.24),
  ('CC[C@@]1(O)C(=O)OCc2c1cc1n(c2=O)Cc2cc3ccccc3nc2-1', 0.95),
  ('COc1cccc2c1C(=O)c1c(O)c3c(c(O)c1C2=O)C[C@@](O)(C(=O)CO)C[C@@H]3O[C@H]1C[C@H](N)[C@H](O)[C@H](C)O1', -0.28),
  ('CCN1C(=O)N(CC)C2C1NC(=O)N2/N=C/C=C/c1ccccc1 (stereo not drawn)', 1.65),
  ('CC(/C=N/N1C(=S)NC2C1N(C)C(=O)N2C)=C\c1ccccc1 (stereo not drawn)', 1.69),
  ('CCN1C(=O)N(CC)C2C1N=C(SC)N2/N=C/C=C/c1ccccc1 (stereo not drawn)', 1.33),
  ('CCN1C(=O)N(CC)C2C1NC(=S)N2/N=C/C=C/c1ccccc1 (stereo not drawn)', 0.81);

---

- System: Fusarium verticillioides
- PROCEDURE TEXT: Fungicidal activity against Fusarium moniliforme grown under potato-saccharose agar assessed as inhibition of mycelial radial growth at 30 mg/l incubated for 72 hrs
- Assay type: functional
- CONDITION DESCRIPTION: read-out: GI
Label 1.0 when inhibition of growth at 30 µg/mL is at or above 30%; otherwise label 0.0.

INSERT INTO assay_data (compound, group_label) VALUES
  ('CSC1=NC2C(N(C)C(=O)N2c2ccccc2)N1/N=C/C=C/c1ccccc1 (stereo not drawn)', 0.0),
  ('CCN1C(=O)N(CC)C2C1N=C(SC)N2/N=C/C=C/c1ccccc1OC (stereo not drawn)', 1.0),
  ('CCN1C(=O)N(CC)C2C1NC(=S)N2/N=C/C=C/c1ccccc1OC (stereo not drawn)', 1.0),
  ('CCN1C(=O)N(c2ccccc2)C2NC(=S)N(/N=C/C=C/c3ccccc3OC)C21 (stereo not drawn)', 0.0),
  ('CCN1C(=O)N(CC)C2C1NC(=S)N2/N=C/C=C/c1ccccc1 (stereo not drawn)', 1.0),
  ('CN1C(=O)N(C)C2C1NC(=O)N2/N=C/C=C/c1ccccc1 (stereo not drawn)', 0.0),
  ('CCN1C(=O)N(CC)C2C1N=C(SC)N2/N=C/C=C/c1ccc(OC)cc1 (stereo not drawn)', 1.0),
  ('CSC1=NC2C(N(C)C(=O)N2C)N1/N=C/C=C/c1ccco1 (stereo not drawn)', 1.0),
  ('CC(/C=N/N1C(=S)NC2C1N(C)C(=O)N2C)=C\c1ccccc1 (stereo not drawn)', 0.0),
  ('CCSC1=NC2C(N(CC)C(=O)N2CC)N1/N=C/C=C/c1ccccc1[N+](=O)[O-] (stereo not drawn)', 0.0),
  ('CCN1C(=O)N(CC)C2C1NC(=S)N2/N=C/C(C)=C/c1ccccc1 (stereo not drawn)', 1.0),
  ('CCSC1=NC2C(N(CC)C(=O)N2CC)N1/N=C/C=C/c1ccccc1 (stereo not drawn)', 1.0),
  ('CCN1C(=O)N(CC)C2C1N=C(SC)N2/N=C/C=C/c1ccccc1 (stereo not drawn)', 1.0);
